Experiment: Plasma AT2220 (1-deoxynojirimycin hydrochloride) pharmacokinetics by LC-MS/MS in Pompe patients
Format: in vivo, human
Conditions: human, plasma, po, 100 mg, 100 mg single oral dose (N=6); median (range); read-out: Tmax, plasma AT2220

{"structure string": "OC[C@H]1NC[C@H](O)[C@@H](O)[C@@H]1O", "Tmax / h": 3}

====

Experiment: Plasma and tissue distribution of 1-DNJ and N-butyl-DNJ in wild type C57BL/6 mice
Conditions: mouse, in vivo, oral 100 mg/kg
recorded metric: Cmax (µM)

{"molecule": "OC[C@H]1NC[C@H](O)[C@@H](O)[C@@H]1O", "experimental result": 120}
{"molecule": "CCCCN1C[C@H](O)[C@@H](O)[C@H](O)[C@H]1CO [AT2221, reference compound]", "experimental result": 140}
